Hey, just so you know, these numbers are from ChEMBL document CHEMBL3638960.

Target: Trace amine-associated receptor 1 (Mus musculus, UniProt Q923Y8)
Sequence (Q923Y8 whole entry): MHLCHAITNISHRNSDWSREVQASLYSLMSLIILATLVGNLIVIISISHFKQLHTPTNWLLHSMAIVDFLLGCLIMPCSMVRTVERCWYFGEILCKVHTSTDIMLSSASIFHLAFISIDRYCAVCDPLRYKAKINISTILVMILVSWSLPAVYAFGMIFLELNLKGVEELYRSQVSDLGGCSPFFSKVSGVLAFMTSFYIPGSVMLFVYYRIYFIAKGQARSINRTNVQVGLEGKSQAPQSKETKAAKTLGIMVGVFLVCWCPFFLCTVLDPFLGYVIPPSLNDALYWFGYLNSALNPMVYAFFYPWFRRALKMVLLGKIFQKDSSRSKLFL
Experiment: Binding assay: Binding assay was performed at 4 C. in a final volume of 1 ml, and with an incubation time of 30 min. The radioligand [3H]-rac-2-(1,2,3,4-tetrahydro-1-naphthyl)-2-imidazoline was used at a concentration equal to the calculated Kd value of 60 nM to give a bound at around 0.1% of the total added radioligand concentration, and a specific binding which represented approximately 70-80% of the total binding. Non-specific binding was defined as the amount of [3H]-rac-2-(1,2,3,4-tetrahydro-1-naphthyl)-2-imidazoline bound in the presence of the appropriate unlabelled ligand (10 μM). Competing ligands were tested in a wide range of concentrations ([…]).
pKi: −log10 of the molar value.

{"Molecular string": "NC1=N[C@@H](CCC2(c3ccccc3)CC2)CO1", "Target": "Trace amine-associated receptor 1 (Mus musculus, UniProt Q923Y8)", "pKi": 9.30}
